# target.or.system: HLA-A*02 (Homo sapiens, UniProt P04439, D140Y/D185E/D98H/E176V/E277Q/G131W/G231S/I119V/I121R/I166T/I218V/L300P/N151K/N90K/P208A/P217A/Q86G/Q94H/R138H/R169H)
# test.description: MHC binding assay by UV-ligand exchange and beta2m ELISA
# condition.info: peptide exchange yield
measured.endpoint: Peptide exchange

substance: 20 (SLLSHQVLL; listed as Homo sapiens) [compound 20]
measured.endpoint: Peptide exchange
experimental.value: +++ (>50 = +++)

substance: 16 (KMDEASAQL; listed as Homo sapiens) [compound 16]
measured.endpoint: Peptide exchange
experimental.value: +++ (>50 = +++)

substance: 5 (KIFSRLIYI; listed as Homo sapiens) [compound 5]
measured.endpoint: Peptide exchange
experimental.value: +++ (>50 = +++)
